B1: Caulobacter ParB omega fusion; a variant is named by its letters at X, in order, B8GW30 (parent)
chain: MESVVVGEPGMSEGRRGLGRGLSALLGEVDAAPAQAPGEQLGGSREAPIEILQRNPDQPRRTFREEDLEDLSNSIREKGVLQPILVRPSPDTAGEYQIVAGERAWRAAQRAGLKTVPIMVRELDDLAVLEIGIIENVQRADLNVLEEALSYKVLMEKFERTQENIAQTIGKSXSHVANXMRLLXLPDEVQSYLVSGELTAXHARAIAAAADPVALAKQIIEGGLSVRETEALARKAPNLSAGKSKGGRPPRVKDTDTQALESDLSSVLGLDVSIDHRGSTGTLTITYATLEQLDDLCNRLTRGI

Variants of: B1
procedure details: one-hybrid fitness for binding parS DNA (scaled: cognate 1, non-cognate 0); higher = stronger binding
reported conditions: with parS DNA site
The full ranking holds about 81,000 sequences; the median of “one-hybrid fitness for binding parS DNA” is about -0.17, and the highest 2% start at about 0.51. The sample as a whole holds a higher share of the highest values than the screen did.
Attribute: one-hybrid fitness for binding parS DNA
// return a plain number; no unit text

These solved cases illustrate the format of a correct answer.
- RFSN: 0.377
- RMRA: 0.765
- RARS: 0.908
- RFRT: 0.9

Incoming: Find the recorded one-hybrid fitness for binding parS DNA belonging to RMYA and report it.
Outgoing: 0.651

Incoming: Please do the same for RFST as well.
Outgoing: 0.841

Incoming: Then what about the variant RSRY ?
Outgoing: 0.55

Incoming: Same again, this time with RRDN
Outgoing: 0.257

Incoming: Then this variant: RFRY
Outgoing: 0.533

Incoming: And the next one, RFYT ?
Outgoing: 0.801

Incoming: And for RLDY ?
Outgoing: 0.451

Incoming: Also check RSYY
Outgoing: 0.457

Incoming: Please answer likewise for RMEA
Outgoing: 0.495
